# Tested on: Ethanol Induced Narcosis in Rats
# experimentSummary: Effects on the duration of ethanol induced narcosis in rats
# Assay type: in vivo
# conditionLabel: Rattus norvegicus; lowest dose causing significant (p≤0.05) increase in duration of narcosis; oral, 60 min before 3.2 g/kg i.p. ethanol; read-out: MED
As shown below, each of these compounds has a reported minimal effective dose value.
State the value, then name its unit.

Would you please look over these solved cases?
>  <compoundStructureString>
O=C(c1ccccc1)c1cnn2c(-c3cccnc3)ccnc12

>  <measurementKind>
minimal effective dose

>  <valueObserved>
16 mg/kg

$$$$
>  <compoundStructureString>
O=C(c1ccco1)c1cnn2c(-c3cccc(C(F)(F)F)c3)ccnc12

>  <measurementKind>
minimal effective dose

>  <valueObserved>
32 mg/kg

$$$$
>  <compoundStructureString>
O=C(c1ccccc1)c1cnn2c(-c3ccncc3)ccnc12

>  <measurementKind>
minimal effective dose

>  <valueObserved>
8 mg/kg

$$$$
>  <compoundStructureString>
O=C(c1ccco1)c1cnn2c(-c3cccnc3)ccnc12

>  <measurementKind>
minimal effective dose

>  <valueObserved>
32 mg/kg

$$$$

Prompt: Need minimal effective dose, item "O=C(c1ccc(F)cc1)c1cnn2c(-c3ccncc3)ccnc12"
Completion: 6 mg/kg

Prompt: // same read-out, input: "O=C(c1ccccc1Cl)c1cnn2c(-c3cccnc3)ccnc12"
Completion: 4 mg/kg

###

# Tested on: Brain-Specific Receptors of Rats
# experimentSummary: Inhibition of the binding of 3H-benzodiazepine to brain-specific receptors of rats
# Design: species or system rat (Wistar)
# conditionLabel: 3H-diazepam 1.5 nM or 3H-flunitrazepam 1.0 nM; rat cortex P2 fraction; test concentration not given
As shown below, each of these compounds has a reported % Inhibition value.
// units = %; emit number, no label

Would you please look over these solved cases?
>  <compoundStructureString>
O=C(c1cccc(F)c1)c1cnn2c(-c3cccc(C(F)(F)F)c3)ccnc12

>  <studyTarget>
Brain-Specific Receptors of Rats

>  <valueObserved>
96

$$$$
>  <compoundStructureString>
Cc1nn2c(-c3cccnc3)ccnc2c1C(=O)c1ccccc1

>  <studyTarget>
Brain-Specific Receptors of Rats

>  <valueObserved>
52

$$$$
>  <compoundStructureString>
O=C(c1ccccc1)c1cnn2c(-c3cccc(C(F)(F)F)c3)ccnc12

>  <studyTarget>
Brain-Specific Receptors of Rats

>  <valueObserved>
93

$$$$

Prompt: Need % Inhibition, item "Cc1ccc(C(=O)c2cnn3c(-c4cccnc4)ccnc23)cc1"
Completion: 56

Prompt: // same read-out, input: "Cc1cc(-c2ccncc2)n2ncc(C(=O)c3ccccc3)c2n1"
Completion: 93

Prompt: // same read-out, input: "O=C(c1cccc(C(F)(F)F)c1)c1cnn2c(-c3ccncc3)ccnc12"
Completion: 99

Prompt: // same read-out, input: "O=C(c1ccccc1)c1cnn2c(-c3cccs3)ccnc12"
Completion: 96

Prompt: // same read-out, input: "COc1ccc(-c2cc(C)nc3c(C(=O)c4ccc(F)cc4)cnn23)cc1OC"
Completion: 48

Prompt: // same read-out, input: "N#Cc1ccc(-c2ccnc3c(C(=O)c4ccccc4)cnn23)cc1"
Completion: 10

Prompt: // same read-out, input: "O=C(c1ccccc1Cl)c1cnn2c(-c3cccnc3)ccnc12"
Completion: 24

Prompt: // same read-out, input: "O=C(c1cccc(C(F)(F)F)c1)c1cnn2c(-c3ccccc3)ccnc12"
Completion: 19

###

# Tested on: Brain-Specific Receptors of Rats
# experimentSummary: Inhibition of the binding of 3H-benzodiazepine to brain-specific receptors of rats
# Design: species or system rat (Wistar)
# conditionLabel: 3H-diazepam 1.5 nM or 3H-flunitrazepam 1.0 nM; rat cortex P2 fraction; test concentration not given
measurementKind: % Inhibition (%)
// units = %; emit number, no label

Would you please look over these solved cases?
>  <compoundStructureString>
O=C(c1ccoc1)c1cnn2c(-c3cccnc3)ccnc12

>  <% Inhibition (%)>
77

$$$$
>  <compoundStructureString>
Cc1cc(-c2cccc(C(F)(F)F)c2)n2ncc(C(=O)c3ccccc3)c2n1

>  <% Inhibition (%)>
27

$$$$
>  <compoundStructureString>
O=C(c1ccccc1)c1cnn2c(-c3cc[n+]([O-])cc3)ccnc12

>  <% Inhibition (%)>
39

$$$$
>  <compoundStructureString>
O=C(c1ccccn1)c1cnn2c(-c3cccs3)ccnc12

>  <% Inhibition (%)>
24

$$$$
>  <compoundStructureString>
O=C(c1ccccn1)c1cnn2c(-c3ccc(F)cc3)ccnc12

>  <% Inhibition (%)>
64

$$$$

Prompt: Need % Inhibition, item "Cc1ccc(C(=O)c2cnn3c(-c4ccsc4)ccnc23)cc1"
Completion: 58

Prompt: // same read-out, input: "COc1cc(-c2ccnc3c(C(=O)c4ccccc4)cnn23)cc(OC)c1OC"
Completion: 24

Prompt: // same read-out, input: "O=C(c1ccco1)c1cnn2c(-c3cccnc3)ccnc12"
Completion: 72

Prompt: // same read-out, input: "CC(=O)Nc1ccc(-c2ccnc3c(C(=O)c4ccccc4)cnn23)cc1"
Completion: 33

Prompt: // same read-out, input: "O=C(c1cccs1)c1cnn2c(-c3cccc(C(F)(F)F)c3)ccnc12"
Completion: 99

Prompt: // same read-out, input: "O=C(c1ccccc1)c1cnn2c(-c3ccsc3)ccnc12"
Completion: 96

###

As shown below, each of these compounds has a reported % Inhibition value.
# Tested on: Brain-Specific Receptors of Rats
# experimentSummary: Inhibition of the binding of 3H-benzodiazepine to brain-specific receptors of rats
# Set-up: species or system rat (Wistar)
# conditionLabel: 3H-diazepam 1.5 nM or 3H-flunitrazepam 1.0 nM; rat cortex P2 fraction; test concentration not given
// units = %; emit number, no label

>  <compoundStructureString>
Cc1cccc(C(=O)c2cnn3c(-c4cccc(C(F)(F)F)c4)ccnc23)c1

>  <studyTarget>
Brain-Specific Receptors of Rats

>  <unitsText>
%

>  <% Inhibition>
67

$$$$
>  <compoundStructureString>
O=C(c1ccccc1)c1cnn2c(-c3ccccn3)ccnc12

>  <studyTarget>
Brain-Specific Receptors of Rats

>  <unitsText>
%

>  <% Inhibition>
30

$$$$
>  <compoundStructureString>
O=C(c1ccccc1)c1cnn2c(-c3cccnc3)ccnc12

>  <studyTarget>
Brain-Specific Receptors of Rats

>  <unitsText>
%

>  <% Inhibition>
45

$$$$
>  <compoundStructureString>
O=C(c1ccc(Cl)cc1)c1cnn2c(-c3ccc(F)cc3)ccnc12

>  <studyTarget>
Brain-Specific Receptors of Rats

>  <unitsText>
%

>  <% Inhibition>
16

$$$$
>  <compoundStructureString>
O=C(c1ccccc1)c1cnn2c(-c3ccccc3)ccnc12

>  <studyTarget>
Brain-Specific Receptors of Rats

>  <unitsText>
%

>  <% Inhibition>
55

$$$$

Prompt: Need % Inhibition, item "O=C(c1ccc(F)cc1)c1cnn2c(-c3cc[n+]([O-])cc3)ccnc12"
Completion: 15

Prompt: // same read-out, input: "Cc1cnc2c(C(=O)c3ccccc3)cnn2c1-c1ccccc1"
Completion: 24

Prompt: // same read-out, input: "Cc1cc(-c2cc[n+]([O-])cc2)n2ncc(C(=O)c3ccccc3)c2n1"
Completion: 52

Prompt: // same read-out, input: "COc1cc(OC)cc(C(=O)c2cnn3c(-c4cccnc4)ccnc23)c1"
Completion: 30

Prompt: // same read-out, input: "O=C(c1cccc(C(F)(F)F)c1)c1cnn2c(-c3cccnc3)ccnc12"
Completion: 38

Prompt: // same read-out, input: "Cc1ccc(C(=O)c2cnn3c(-c4ccncc4)ccnc23)cc1"
Completion: 19

###

# Tested on: Brain-Specific Receptors of Rats
# experimentSummary: Inhibition of the binding of 3H-benzodiazepine to brain-specific receptors of rats
# Design: species or system rat (Wistar)
# conditionLabel: 3H-diazepam 1.5 nM or 3H-flunitrazepam 1.0 nM; rat cortex P2 fraction; test concentration not given
measurementKind: % Inhibition (%)
// units = %; emit number, no label

Would you please look over these solved cases?
>  <compoundStructureString>
O=C(c1ccccn1)c1cnn2c(-c3ccncc3)ccnc12

>  <% Inhibition / %>
29

$$$$
>  <compoundStructureString>
CSc1cccc(-c2ccnc3c(C(=O)c4ccccc4)cnn23)c1

>  <% Inhibition / %>
98

$$$$
>  <compoundStructureString>
O=C(c1ccccc1)c1cnn2c(-c3ccc(F)cc3)ccnc12

>  <% Inhibition / %>
18

$$$$

Prompt: Need % Inhibition, item "O=C(c1ccc(F)cc1)c1cnn2c(-c3cccc(C(F)(F)F)c3)ccnc12"
Completion: 50

Prompt: // same read-out, input: "O=C(c1cccs1)c1cnn2c(-c3ccncc3)ccnc12"
Completion: 62

Prompt: // same read-out, input: "O=C(c1ccccc1)c1cnn2c(-c3cc(Cl)ccc3Cl)ccnc12"
Completion: 21

Prompt: // same read-out, input: "COc1ccc(C(=O)c2cnn3c(-c4cccnc4)ccnc23)cc1OC"
Completion: 75

Prompt: // same read-out, input: "O=C(c1cccs1)c1cnn2c(-c3cccnc3)ccnc12"
Completion: 82

Prompt: // same read-out, input: "O=C(c1ccco1)c1cnn2c(-c3ccccc3)ccnc12"
Completion: 81

Prompt: // same read-out, input: "O=C(c1ccc(Cl)cc1)c1cnn2c(-c3cccc(C(F)(F)F)c3)ccnc12"
Completion: 81

Prompt: // same read-out, input: "O=C(c1cccc(F)c1)c1cnn2c(-c3ccc(F)cc3)ccnc12"
Completion: 52
